Target: T1, human CD3 on human T cells (Jurkat) (human, UniProt P07766 23-207; P04234 22-171; P09693 23-182)
T1 construct: whole, on cells; also called huCD3+; cell surface CD3 on human (Jurkat) T cells
T1 sequence (P07766 23-207, chain 1 of 3): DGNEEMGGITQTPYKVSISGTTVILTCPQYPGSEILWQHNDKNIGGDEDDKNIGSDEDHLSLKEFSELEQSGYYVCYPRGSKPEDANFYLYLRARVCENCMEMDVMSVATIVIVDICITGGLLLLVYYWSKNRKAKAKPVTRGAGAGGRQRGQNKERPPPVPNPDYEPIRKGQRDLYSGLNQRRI
T1 sequence (P04234 22-171, chain 2 of 3): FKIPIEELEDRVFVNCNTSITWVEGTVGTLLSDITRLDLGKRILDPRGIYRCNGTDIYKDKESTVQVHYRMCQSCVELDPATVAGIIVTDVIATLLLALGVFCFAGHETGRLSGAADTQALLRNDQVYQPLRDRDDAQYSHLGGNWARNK
T1 sequence (P09693 23-182, chain 3 of 3): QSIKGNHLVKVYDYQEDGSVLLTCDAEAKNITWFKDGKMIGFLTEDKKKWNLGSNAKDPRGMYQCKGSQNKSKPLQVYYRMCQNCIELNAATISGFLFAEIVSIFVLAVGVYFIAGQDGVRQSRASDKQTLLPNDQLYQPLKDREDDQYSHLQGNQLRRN
Experiment: flow cytometry, Jurkat cells, 8 nM antibody
Method: To express humanized Fabs in mammalian cells, VH genes (VH1 and VH2) and VL genes (VL1~VL10) shown in FIG. 2 were individually cloned into the pFUSE vector under the IL2 signal peptide sequence. […] Binding affinity of humanized candidates for human and cynomolgus T cells were evaluated by flow cytometry. […] After several washes, samples were acquired on a BD LSR II or BD Accuri C6 and analyzed using FlowJo 7.6.2 software.
observable: MFI
Give only the figure.

Use the examples below as a reference point.
{"binder": "HuL3H2 (Fab, V domains shown, Humanized Fab expressed in Expi293F; also called VL3 + VH2 humanized Fab) VH: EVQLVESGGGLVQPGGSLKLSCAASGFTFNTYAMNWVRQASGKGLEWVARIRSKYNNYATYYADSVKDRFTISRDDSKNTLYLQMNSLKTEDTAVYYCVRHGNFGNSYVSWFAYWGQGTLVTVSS VL: QAVVTQEPSLTVSPGGTVTLTCGSSTGAVTTSNYANWVQQKPGQAFRGLIGGTNKRAPWTPARFSGSLLGGKAALTISGAQPEDEAEYYCALWYSNLWVFGGGTKLTVL", "measured": 610}
{"binder": "Murine anti-CD3 (antibody, V domains shown, also called murine anti-CD3 VL/VH) VH: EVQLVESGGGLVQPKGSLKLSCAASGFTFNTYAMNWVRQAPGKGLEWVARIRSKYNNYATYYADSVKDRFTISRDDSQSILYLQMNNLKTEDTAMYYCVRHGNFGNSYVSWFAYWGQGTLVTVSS VL: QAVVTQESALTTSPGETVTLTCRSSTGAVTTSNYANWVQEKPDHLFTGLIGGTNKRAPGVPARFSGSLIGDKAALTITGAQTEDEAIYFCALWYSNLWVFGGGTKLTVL", "measured": 28500}
{"binder": "HuL9H2 (Fab, V domains shown, Humanized Fab expressed in Expi293F; also called VL9 + VH2 humanized Fab) VH: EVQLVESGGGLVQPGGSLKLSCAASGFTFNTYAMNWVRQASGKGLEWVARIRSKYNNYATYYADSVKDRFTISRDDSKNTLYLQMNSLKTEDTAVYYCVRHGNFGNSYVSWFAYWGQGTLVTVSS VL: QAVVTQEPSLTVSPGGTVTLTCGSSTGAVTTSNYANWVQQKPGQAFRGLIGGTNKRAPGVPDRFSGSLLGGKAALTISGAQPEDEAEYYCALWYSNLWVFGGGTKLTVL", "measured": 2760}
{"binder": "HuL2H2 (Fab, V domains shown, Humanized Fab expressed in Expi293F; also called VL2 + VH2 humanized Fab) VH: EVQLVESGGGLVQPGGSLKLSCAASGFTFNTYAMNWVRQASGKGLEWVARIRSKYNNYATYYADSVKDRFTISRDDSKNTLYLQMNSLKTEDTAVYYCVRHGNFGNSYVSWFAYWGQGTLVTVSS VL: QAVVTQEPSLTVSPGGTVTLTCGSSTGAVTTSNYANWVQQKPGQAFRGLIYGTNKRAPWTPARFSGSLLGGKAALTISGAQPEDEAEYYCALWYSNLWVFGGGTKLTVL", "measured": 1450}

Entry under review: HuL6H2 (Fab, V domains shown, Humanized Fab expressed in Expi293F; also called VL6 + VH2 humanized Fab) VH: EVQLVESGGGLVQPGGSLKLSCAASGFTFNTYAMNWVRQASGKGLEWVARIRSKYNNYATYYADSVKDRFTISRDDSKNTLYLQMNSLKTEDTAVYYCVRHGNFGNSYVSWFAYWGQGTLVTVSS VL: QAVVTQEPSLTVSPGGTVTLTCRSSTGAVTTSNYANWFQQKPDHLPRTLIYGTNKRAPGTPARFSGSLLGDKAALTISGAQPEDEAEYYCALWYSNLWVFGGGTKLTVL . Reported MFI?
573
